# tested system: Protein O-GlcNAcase (Homo sapiens, UniProt O60502)
# test: Competitive inhibition of N-terminal His-tagged human OGA using 4-Mu-GlcNAc as substrate assessed as inhibition constant by measuring liberation of […] preincubated with enzyme followed by substrate addition by Cornish-Bowden method

record smiles: CC(=O)N[C@H]1/C(=N/NC(=O)Nc2ccc(Cl)cc2)O[C@H](CO)[C@@H](O)[C@@H]1O
output unit: nM
Ki: 83
//
record smiles: CC(=O)N[C@H]1/C(=N/NC(=O)Nc2ccc3ccccc3c2)O[C@H](CO)[C@@H](O)[C@@H]1O
output unit: nM
Ki: 36

----------
# tested system: Protein O-GlcNAcase (Homo sapiens)
# Sequence (O60502 whole entry): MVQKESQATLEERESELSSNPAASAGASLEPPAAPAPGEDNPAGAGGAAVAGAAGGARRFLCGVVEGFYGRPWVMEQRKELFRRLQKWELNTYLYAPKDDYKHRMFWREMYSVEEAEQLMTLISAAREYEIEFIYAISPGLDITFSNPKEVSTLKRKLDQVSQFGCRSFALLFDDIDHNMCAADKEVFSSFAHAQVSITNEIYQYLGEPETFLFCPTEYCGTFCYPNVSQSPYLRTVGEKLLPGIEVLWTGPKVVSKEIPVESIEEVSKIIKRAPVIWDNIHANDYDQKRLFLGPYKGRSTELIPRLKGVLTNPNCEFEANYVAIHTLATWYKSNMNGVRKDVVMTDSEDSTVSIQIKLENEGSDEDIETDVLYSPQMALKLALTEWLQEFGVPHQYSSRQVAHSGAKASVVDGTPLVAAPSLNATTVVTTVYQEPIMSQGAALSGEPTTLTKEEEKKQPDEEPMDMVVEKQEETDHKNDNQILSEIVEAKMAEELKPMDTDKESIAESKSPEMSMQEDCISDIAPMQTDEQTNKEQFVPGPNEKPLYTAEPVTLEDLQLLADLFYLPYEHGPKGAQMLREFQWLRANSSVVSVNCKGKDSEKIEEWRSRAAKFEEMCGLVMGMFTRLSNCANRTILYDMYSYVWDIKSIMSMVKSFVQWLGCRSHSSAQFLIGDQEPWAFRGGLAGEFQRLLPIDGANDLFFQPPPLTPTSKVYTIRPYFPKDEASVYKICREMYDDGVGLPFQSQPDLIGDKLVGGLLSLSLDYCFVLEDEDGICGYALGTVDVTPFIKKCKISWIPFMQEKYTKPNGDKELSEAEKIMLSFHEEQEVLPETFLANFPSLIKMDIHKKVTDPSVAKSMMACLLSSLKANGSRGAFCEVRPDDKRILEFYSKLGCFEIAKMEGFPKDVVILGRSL
# test: Inhibition of OGA (unknown origin) using pNP-O-GlcNAc as substrate assessed as inhibition constant incubated for 30 mins

record smiles: CC(=O)N[C@H]1/C(=N/O)O[C@H](CO)[C@@H](O)[C@@H]1O
Ki: 1600 nM
